Each entry below lists one item and its recorded Kd value.
- assayedTarget: BRCT domain of MtbLigA, His-tagged (M. tuberculosis, UniProt P9WNV1 607-691)
- assayComment: ITC
Reply with just the number (in µM).

The binder YDVAHVGFD [YDV peptide (MtbXthA 75-83)] showed Kd equal to 88.5

Next binder, Kd to be filled in.
Form: binder = DGQPSWSGKP [DGQ peptide (MtbXthA 104-113)] ; Kd = 2.47
